# testTarget: Nuclear receptor ROR-gamma (Homo sapiens, UniProt P51449)
# Sequence (P51449 whole entry): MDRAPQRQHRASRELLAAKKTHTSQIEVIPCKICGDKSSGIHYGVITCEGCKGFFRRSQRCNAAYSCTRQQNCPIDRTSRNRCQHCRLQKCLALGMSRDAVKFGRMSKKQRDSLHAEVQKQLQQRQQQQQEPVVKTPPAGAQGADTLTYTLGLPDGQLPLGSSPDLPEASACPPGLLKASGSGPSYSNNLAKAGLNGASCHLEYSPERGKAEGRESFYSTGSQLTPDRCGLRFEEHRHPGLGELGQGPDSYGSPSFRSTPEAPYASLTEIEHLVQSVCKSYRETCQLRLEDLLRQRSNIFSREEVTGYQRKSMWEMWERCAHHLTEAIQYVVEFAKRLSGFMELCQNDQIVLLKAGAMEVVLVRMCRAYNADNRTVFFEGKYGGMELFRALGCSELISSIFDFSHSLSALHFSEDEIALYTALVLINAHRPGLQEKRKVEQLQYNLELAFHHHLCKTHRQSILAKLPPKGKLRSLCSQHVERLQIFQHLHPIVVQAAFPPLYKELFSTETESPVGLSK
# testDetails: Allosteric inhibition of RORgammaT in IL-1B/IL-23/IL-2/IL-6/T-Activator CD3/28 Dynabeads-stimulated human PBMC cells assessed as reduction in Th17 differentiation by measuring reduction in IL-17A level incubated for 4 days post-cell stimulation by ELISA
measurementType: pIC50
Please keep in mind that pIC50 is minus log10 of the molar concentration; only the number is needed.

Request the reported pIC50 associated with O=C(O)c1ccc(-c2nn(C(=O)c3c(Cl)cccc3C(F)(F)F)c3cccnc23)c(F)c1
7.48
